- system: PI3Kα (Homo sapiens)
- Construct: His tag (pFastbac HTb vector) (N); FLAG; made in house; host or cells: Sf21 insect cells (baculovirus)
- Sequence (P42336 whole entry): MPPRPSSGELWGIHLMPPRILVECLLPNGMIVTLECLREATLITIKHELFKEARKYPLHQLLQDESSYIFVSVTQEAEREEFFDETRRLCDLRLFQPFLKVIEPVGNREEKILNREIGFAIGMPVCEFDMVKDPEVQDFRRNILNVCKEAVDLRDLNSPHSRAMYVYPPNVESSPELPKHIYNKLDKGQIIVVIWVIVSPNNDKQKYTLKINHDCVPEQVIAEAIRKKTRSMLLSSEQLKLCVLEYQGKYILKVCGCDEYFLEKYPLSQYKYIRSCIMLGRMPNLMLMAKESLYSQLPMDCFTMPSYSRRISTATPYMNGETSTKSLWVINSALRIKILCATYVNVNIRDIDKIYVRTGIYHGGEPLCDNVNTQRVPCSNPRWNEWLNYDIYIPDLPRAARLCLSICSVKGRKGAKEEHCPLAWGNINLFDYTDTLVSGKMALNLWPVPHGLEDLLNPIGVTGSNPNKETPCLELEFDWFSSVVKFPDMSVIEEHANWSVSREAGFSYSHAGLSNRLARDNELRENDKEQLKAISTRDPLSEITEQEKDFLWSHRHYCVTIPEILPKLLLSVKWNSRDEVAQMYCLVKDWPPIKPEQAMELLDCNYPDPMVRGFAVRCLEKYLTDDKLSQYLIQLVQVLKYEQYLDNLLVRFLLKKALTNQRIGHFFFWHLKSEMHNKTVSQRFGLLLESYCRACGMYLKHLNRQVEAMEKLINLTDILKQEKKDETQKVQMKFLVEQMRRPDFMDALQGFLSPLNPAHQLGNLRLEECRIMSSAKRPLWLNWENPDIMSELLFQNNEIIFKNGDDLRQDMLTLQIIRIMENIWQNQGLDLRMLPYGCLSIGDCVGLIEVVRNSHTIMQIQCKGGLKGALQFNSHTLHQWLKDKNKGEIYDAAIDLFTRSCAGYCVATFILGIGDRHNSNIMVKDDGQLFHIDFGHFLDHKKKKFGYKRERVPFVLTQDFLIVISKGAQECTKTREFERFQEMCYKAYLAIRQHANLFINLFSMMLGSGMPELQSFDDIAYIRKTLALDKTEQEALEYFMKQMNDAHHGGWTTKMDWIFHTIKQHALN
- Sequence (P27986 whole entry partner): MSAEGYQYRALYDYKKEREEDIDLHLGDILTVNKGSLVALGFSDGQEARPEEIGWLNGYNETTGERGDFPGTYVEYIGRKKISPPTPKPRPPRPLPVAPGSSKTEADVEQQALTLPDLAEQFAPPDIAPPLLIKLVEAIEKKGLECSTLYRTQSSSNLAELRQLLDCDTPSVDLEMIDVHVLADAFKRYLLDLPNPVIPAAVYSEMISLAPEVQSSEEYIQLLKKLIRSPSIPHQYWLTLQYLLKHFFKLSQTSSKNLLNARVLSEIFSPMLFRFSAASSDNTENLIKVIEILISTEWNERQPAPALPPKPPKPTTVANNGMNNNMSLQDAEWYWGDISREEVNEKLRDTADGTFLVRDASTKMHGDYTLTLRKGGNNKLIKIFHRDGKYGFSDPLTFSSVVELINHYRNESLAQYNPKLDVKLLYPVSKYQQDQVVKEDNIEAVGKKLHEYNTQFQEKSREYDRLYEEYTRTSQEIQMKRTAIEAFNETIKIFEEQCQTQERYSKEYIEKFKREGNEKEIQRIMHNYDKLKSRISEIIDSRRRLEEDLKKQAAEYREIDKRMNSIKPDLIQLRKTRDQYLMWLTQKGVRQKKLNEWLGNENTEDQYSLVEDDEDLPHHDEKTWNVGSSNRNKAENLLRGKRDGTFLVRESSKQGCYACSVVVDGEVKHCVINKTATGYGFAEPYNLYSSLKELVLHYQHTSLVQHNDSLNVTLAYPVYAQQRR
- experiment_notes: Biochemical assay of PI3K potency and selectivity using 20 μM ATP, Alpha
- condition_set: read-out: percent activity remaining at 100 μM, 20 μM ATP; 100 μM compound did not inhibit by at least 50%
Would you kindly list remaining activity at 100 µM for each of these compounds?
Dear colleague, please return just the value in %, with no unit written.

Quick one: remaining activity at 100 µM of `Nc1ncnc2c1ncn2Cc1nc2c(Cl)cccc2c(=O)n1-c1ccccc1Cl` ?
82

Name the recorded remaining activity at 100 µM for `Cc1cccc2nc(Cn3cnc4c(N)ncnc43)n(-c3ccccc3Cl)c(=O)c12` .
82

Fill blank: measured remaining activity at 100 µM of the compound `Nc1ncnc2c1ncn2Cc1nc2cccc(Cl)c2c(=O)n1-c1ccccc1Cl` is ____.
78
